This collection of values is drawn from patent US20200102387A1.

Parameter pKd: see the listing below.
target: T1, human SIRPβ-Fc (human); experiment: BLI Octet, antigen-Fc on biosensor;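 also: antigen captured on the biosensor tip and then immersed in solutions of the test antibodies, which act as the analyte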
T1 construct: a signal peptide may be part of the entry
pKd: −log10 of the molar value.
MEASUREMENT LABEL: pKd

BINDER	MEASUREMENT LABEL	REPORTED
SIRPAB-5 (antibody, human IgG1, kappa, V domains shown) VH: QVQLQESGPGLVKPSQTLSLTCTVSGGSISSGPAYWSWIRQHPGKGLEWIGTIYYSGSTFYNPSLKSRVTISVDTSKNQFSLKLSSVTAADTAVYYCAREGYHSGMDVWGQGTTVTVSS VL: DIQMTQSPSSLSASVGDRVTITCQASQDISNYLNWYQQKPGKAPKLLIYDASNLATGVPSRFSGSGSGTDFTFTISSLQPEDIATYYCQQFAYLPWTFGGGTKVEIKR	pKd	9.82
SIRPAB-1 (antibody, human IgG1, kappa, V domains shown) VH: QVQLQESGPGLVKPSQTLSLTCTVSGGSISSGGYYWSWIRQHPGKGLEWIGSIYYSGSTYYNPSLKSRVTISVDTSKNQFSLKLSSVTAADTAVYYCAREGYHSGMDVWGQGTTVTVSS VL: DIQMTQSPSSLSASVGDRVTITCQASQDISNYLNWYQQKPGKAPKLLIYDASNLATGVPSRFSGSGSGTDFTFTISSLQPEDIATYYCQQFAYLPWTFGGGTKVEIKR	pKd	8.34
SIRPAB-4 (antibody, human IgG1, kappa, V domains shown) VH: QVQLQESGPGLVKPSQTLSLTCTVSGGSISSGSPYWSWIRQHPGKGLEWIGYIYASGFTYYNPSLKSRVTISVDTSKNQFSLKLSSVTAADTAVYYCAREGYHSGMDVWGQGTTVTVSS VL: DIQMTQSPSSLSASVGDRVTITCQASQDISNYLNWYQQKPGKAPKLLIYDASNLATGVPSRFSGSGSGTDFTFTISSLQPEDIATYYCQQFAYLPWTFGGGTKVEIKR	pKd	9.00
SIRPAB-7 (antibody, human IgG1, kappa, V domains shown) VH: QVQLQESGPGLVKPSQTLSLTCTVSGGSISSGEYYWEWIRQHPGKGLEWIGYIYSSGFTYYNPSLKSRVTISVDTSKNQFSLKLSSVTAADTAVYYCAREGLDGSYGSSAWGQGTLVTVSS VL: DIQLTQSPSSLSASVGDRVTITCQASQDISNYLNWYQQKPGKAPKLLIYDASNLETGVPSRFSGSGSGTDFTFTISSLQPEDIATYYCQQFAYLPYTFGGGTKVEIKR	pKd	8.59
SIRPAB-9 (antibody, human IgG1, kappa, V domains shown) VH: QVQLVQSGAEVKKPGASVKVSCKASGYTFGGYGISWVRQAPGQGLEWMGWISAYGGETNYAQKLQGRVTMTTDTSTSTAYMELRSLRSDDTAVYYCAREAGSSWYDFDLWGRGTLVTVSS VL: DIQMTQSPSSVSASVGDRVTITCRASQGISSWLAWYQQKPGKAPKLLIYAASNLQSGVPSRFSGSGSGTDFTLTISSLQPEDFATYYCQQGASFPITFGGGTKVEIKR	pKd	8.55
